# Tested on: SK-MEL-28
# experimental details: SRB colorimetric assay of cell growth and viability, SK-MEL-28
# Format: cell-based, human
# condition context: 48 hours exposure; read-out: LC50 MEL-28
Where a SMILES comes first, the peptide text is derived from it. Bridges are numbered along the chain shown (N, C = ends). [ ]: non-standard residue; d: D form. The star is where a group is joined. d(aIle) = CC[C@H](C)[C@@H](N)C(=O)O; d(aThr) = C[C@@H](O)[C@@H](N)C(=O)O; Hexanoyl(5-Me) = CC(C)CCCC(=O)*; Orn = NCCC[C@H](N)C(=O)O; Dhb = C/C=C(\N)C(=O)O
This listing pairs compounds with measured CC50.

[[record]]
compound = "C/C=C1\\NC(=O)[C@H](Cc2ccccc2)NC(=O)[C@@H](C(C)C)NC(=O)[C@@H]([C@@H](C)CC)NC(=O)[C@H](NC(=O)[C@H](NC(=O)[C@H](CCCN)NC(=O)[C@H]2CCCN2C(=O)[C@H](NC(=O)[C@@H](NC(=O)[C@H](NC(=O)[C@H](NC(=O)CCCC(C)C)C(C)C)[C@H](C)O)C(C)C)C(C)C)[C@@H](C)CC)[C@@H](C)OC(=O)[C@H](C(C)C)NC1=O [Compound 7, [D-Thr^12]-KF]"
parameter_measured = "CC50"
test_value = "≥ 6.77 µM"


(Q) I am curious: what CC50 value has been reported for C/C=C1\NC(=O)[C@H](Cc2ccccc2)NC(=O)[C@@H](C(C)C)NC(=O)[C@@H]([C@@H](C)CC)NC(=O)[C@H](NC(=O)[C@H](NC(=O)[C@H](CCCN)NC(=O)[C@H]2CCCN2C(=O)[C@H](NC(=O)[C@H](CC(C)C)NC(=O)[C@@H](NC(=O)[C@H](NC(=O)CCCC(C)C)C(C)C)[C@@H](C)O)C(C)C)[C@@H](C)CC)[C@@H](C)OC(=O)[C@H](C(C)C)NC1=O [Compound 45, [Leu^11]-KF] ({Hexanoyl(5-Me)}-[dV]TL[dV][dP][Orn][d(aIle)][d(aThr)][d(aIle)][dV]F[Dhb]V; ester 8-C) ?
(A) 4.11 µM

(Q) I am curious: what CC50 value has been reported for C/C=C1\NC(=O)[C@H](Cc2ccccc2)NC(=O)[C@@H](C(C)C)NC(=O)[C@@H]([C@@H](C)CC)NC(=O)[C@H](NC(=O)[C@H](NC(=O)[C@H](CCCCN)NC(=O)[C@H]2CCCN2C(=O)[C@H](NC(=O)[C@@H](NC(=O)[C@@H](NC(=O)[C@H](NC(=O)CC[C@@H](C)CC)C(C)C)[C@@H](C)O)C(C)C)C(C)C)[C@@H](C)CC)[C@@H](C)OC(=O)[C@H](C(C)C)NC1=O [Compound 30, [Lys^8, (4S)-MeHex^14]-KF] ?
(A) 4.78 µM

(Q) I am curious: what CC50 value has been reported for C/C=C1\NC(=O)[C@H](Cc2ccccc2)NC(=O)[C@@H](C(C)C)NC(=O)[C@@H]([C@@H](C)CC)NC(=O)[C@H](NC(=O)[C@H](NC(=O)[C@H](CCCN)NC(=O)[C@H]2CCCN2C(=O)[C@H](NC(=O)[C@@H](NC(=O)[C@@H](NC(=O)[C@H](NC(=O)CCCNC(=N)N)C(C)C)[C@@H](C)O)C(C)C)C(C)C)[C@@H](C)CC)[C@@H](C)OC(=O)[C@H](C(C)C)NC1=O [Compound 29, [4-GuBut^14]-KF] ?
(A) 6.7 µM

(Q) I am curious: what CC50 value has been reported for C/C=C1\NC(=O)[C@H](Cc2ccccc2)NC(=O)[C@@H](C(C)C)NC(=O)[C@@H]([C@@H](C)CC)NC(=O)[C@H](NC(=O)[C@H](NC(=O)[C@H](CCCN)NC(=O)[C@H]2CCCN2C(=O)[C@H](NC(=O)[C@H](C)NC(=O)[C@@H](NC(=O)[C@H](NC(=O)CCCC(C)C)C(C)C)[C@@H](C)O)C(C)C)[C@@H](C)CC)[C@@H](C)OC(=O)[C@H](C(C)C)NC1=O [Compound 44, [Ala^11]-KF] ({Hexanoyl(5-Me)}-[dV]TA[dV][dP][Orn][d(aIle)][d(aThr)][d(aIle)][dV]F[Dhb]V; ester 8-C) ?
(A) 6.9 µM

(Q) I am curious: what CC50 value has been reported for C/C=C1\NC(=O)[C@H](Cc2ccccc2)NC(=O)[C@@H](C(C)C)NC(=O)[C@@H]([C@@H](C)CC)NC(=O)[C@H](NC(=O)[C@H](NC(=O)[C@H](CCCN)NC(=O)[C@H]2CCCN2C(=O)[C@H](NC(=O)[C@@H](NC(=O)[C@@H](NC(=O)[C@@H](CC2CCCCC2)NC(=O)CCCC(C)C)[C@@H](C)O)C(C)C)C(C)C)[C@@H](C)CC)[C@@H](C)OC(=O)[C@H](C(C)C)NC1=O [Compound 8, [D-Cha^13]-KF] ?
(A) 4.02 µM

(Q) I am curious: what CC50 value has been reported for C/C=C1\NC(=O)[C@H](Cc2ccccc2)NC(=O)[C@@H](C(C)C)NC(=O)[C@@H]([C@@H](C)CC)NC(=O)[C@H](NC(=O)[C@H](NC(=O)[C@H](CCCN)NC(=O)[C@H]2CCCN2C(=O)[C@H](NC(=O)[C@@H](NC(=O)[C@@H](NC(=O)[C@H](NC(=O)C(F)(F)C(F)(F)C(F)(F)C(F)(F)C(F)(F)C(F)(F)F)C(C)C)[C@@H](C)O)C(C)C)C(C)C)[C@@H](C)CC)[C@@H](C)OC(=O)[C@H](C(C)C)NC1=O [Compound 26, [Pfh^14]-KF] ?
(A) 2.96 µM

(Q) I am curious: what CC50 value has been reported for C/C=C1\NC(=O)[C@H](Cc2ccccc2)NC(=O)[C@@H](C(C)C)NC(=O)[C@@H]([C@@H](C)CC)NC(=O)[C@H](NC(=O)[C@H](NC(=O)[C@H](CCCCN)NC(=O)[C@H]2CCCN2C(=O)[C@H](NC(=O)[C@@H](NC(=O)[C@@H](NC(=O)[C@H](NC(=O)CCCC(C)C)C(C)C)[C@@H](C)O)C(C)C)C(C)C)[C@@H](C)CC)[C@@H](C)OC(=O)[C@H](C(C)C)NC1=O [Compound 5, [Lys^8]-KF] ?
(A) 4.3 µM

(Q) I am curious: what CC50 value has been reported for C/C=C1\NC(=O)[C@H](Cc2ccccc2)NC(=O)[C@@H](C(C)C)NC(=O)[C@@H]([C@@H](C)CC)NC(=O)[C@H](NC(=O)[C@H](NC(=O)[C@H](CCCN)NC(=O)[C@H]2CCCN2C(=O)[C@H](NC(=O)[C@@H](NC(=O)[C@@H](NC(=O)[C@@H](C)NC(=O)CCCC(C)C)[C@@H](C)O)C(C)C)C(C)C)[C@@H](C)CC)[C@@H](C)OC(=O)[C@H](C(C)C)NC1=O [Compound 34, [D-Ala^13]-KF] ?
(A) 5 µM
